- assay system: CDK3/cyclin E (Homo sapiens) (UniProt P24864+O96020+Q00526)
- Sequence (O96020 whole entry, looked up): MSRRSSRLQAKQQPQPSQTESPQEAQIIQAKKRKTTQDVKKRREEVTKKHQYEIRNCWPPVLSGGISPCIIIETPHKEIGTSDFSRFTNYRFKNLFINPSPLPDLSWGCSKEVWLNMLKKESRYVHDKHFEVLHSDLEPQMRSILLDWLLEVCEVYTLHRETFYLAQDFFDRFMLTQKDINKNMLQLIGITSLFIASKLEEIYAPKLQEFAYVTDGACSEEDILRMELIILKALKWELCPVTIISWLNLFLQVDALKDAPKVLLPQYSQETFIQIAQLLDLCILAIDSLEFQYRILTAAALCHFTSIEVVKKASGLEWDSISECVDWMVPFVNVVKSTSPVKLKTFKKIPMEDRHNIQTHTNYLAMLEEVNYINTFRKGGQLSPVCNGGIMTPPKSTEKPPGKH
- Sequence (P24864 whole entry, looked up): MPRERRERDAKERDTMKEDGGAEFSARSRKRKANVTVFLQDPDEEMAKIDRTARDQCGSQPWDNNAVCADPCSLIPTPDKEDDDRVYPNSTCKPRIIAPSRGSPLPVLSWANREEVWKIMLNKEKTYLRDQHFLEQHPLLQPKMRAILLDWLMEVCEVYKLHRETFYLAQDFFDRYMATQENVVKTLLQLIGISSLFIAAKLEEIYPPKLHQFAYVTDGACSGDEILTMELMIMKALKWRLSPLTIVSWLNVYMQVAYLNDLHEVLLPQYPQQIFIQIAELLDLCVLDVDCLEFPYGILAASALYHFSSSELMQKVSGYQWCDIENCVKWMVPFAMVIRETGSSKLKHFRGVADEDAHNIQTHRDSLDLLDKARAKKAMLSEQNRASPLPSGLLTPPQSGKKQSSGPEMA
- Sequence (Q00526 whole entry, looked up): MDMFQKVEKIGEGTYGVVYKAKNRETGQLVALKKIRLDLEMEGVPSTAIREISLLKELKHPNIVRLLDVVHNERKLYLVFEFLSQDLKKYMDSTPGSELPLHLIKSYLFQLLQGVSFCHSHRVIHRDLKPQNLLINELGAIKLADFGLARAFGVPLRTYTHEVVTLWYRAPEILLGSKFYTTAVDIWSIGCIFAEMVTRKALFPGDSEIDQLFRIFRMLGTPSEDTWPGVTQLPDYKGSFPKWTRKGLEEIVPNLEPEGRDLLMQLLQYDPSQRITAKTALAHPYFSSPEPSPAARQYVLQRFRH
- experimental conditions: at 1 µM

{"smi": "CC(C)(C)n1nc(Cc2cccc3ccccc23)c2c(N)ncnc21", "unit label": "%", "residual activity": 86}
{"smi": "COc1ccc(-c2cnc3c(-c4ccsc4)cnn3c2)cc1", "unit label": "%", "residual activity": 85}
{"smi": "CCCC(=O)Oc1ccc2[nH]c(C(=O)c3cc4ccccc4[nH]3)cc2c1", "unit label": "%", "residual activity": 95}
{"smi": "O=C1NC(=O)C(c2cn(CCCn3ccnc3)c3ccccc23)=C1Nc1ccccc1", "unit label": "%", "residual activity": 51}
{"smi": "CCCCc1c(-c2ccc(OC)cc2)[nH]c2nccnc12", "unit label": "%", "residual activity": 40}
{"smi": "Nc1nc(Nc2ccc(S(N)(=O)=O)cc2)nn1C(=O)c1c(F)cccc1F", "unit label": "%", "residual activity": 3}
{"smi": "O=C(O)/C=C/c1cc(Br)c(Br)c(Br)c1Br", "unit label": "%", "residual activity": 103}
{"smi": "COc1cc2nccc(Oc3ccc(NC(=S)NC(=O)c4ccccc4C)cc3)c2cc1OC", "unit label": "%", "residual activity": 89}
{"smi": "O=C(c1ccccc1)c1ccc(N2CCOCC2)cc1O", "unit label": "%", "residual activity": 96}
{"smi": "CC(C)c1nn(-c2c(Cl)cccc2Cl)c2nc(Cc3ccc(OCCO)cc3)[nH]c(=O)c12", "unit label": "%", "residual activity": -1}
{"smi": "Nc1n[nH]c2nc3ccccc3nc12", "unit label": "%", "residual activity": 83}
{"smi": "COc1ccc2c(c1)c(C1=C(c3c[nH]c4ccccc34)C(=O)NC1=O)cn2CCCN(C)C", "unit label": "%", "residual activity": 102}
{"smi": "N#C/C(=C1/Nc2ccccc2S1)c1ccnc(NCCc2cccnc2)n1", "unit label": "%", "residual activity": 84}
{"smi": "O=C1Cc2c([nH]c3ccc(Br)cc23)-c2ccccc2N1", "unit label": "%", "residual activity": 54}
{"smi": "O=c1cc(N2CCOCC2)oc2c1ccc1ccccc12", "unit label": "%", "residual activity": 102}
{"smi": "O=C1NC(=O)c2c1c1c3ccccc3[nH]c1n1cncc21", "unit label": "%", "residual activity": 48}
{"smi": "Oc1cccc(-c2nc(N3CCOCC3)c3oc4ncccc4c3n2)c1", "unit label": "%", "residual activity": 118}
{"smi": "O=C1C(Cl)=C(N2C(=O)CCC2=O)C(=O)c2ccccc21", "unit label": "%", "residual activity": 97}
{"smi": "CN(C)S(=O)(=O)c1ccc2c(c1)/C(=C/c1cc3c([nH]1)CCCC3)C(=O)N2", "unit label": "%", "residual activity": 87}
{"smi": "O=c1cc(N2CCNCC2)oc2c(-c3ccccc3)cccc12", "unit label": "%", "residual activity": 102}
{"smi": "N#C/C(=C\\c1ccc(O)c(O)c1)C(=O)NCc1ccccc1", "unit label": "%", "residual activity": 100}
{"smi": "COc1ccc(Cl)cc1NC(=O)Nc1cc(C)nc2ccccc12", "unit label": "%", "residual activity": 93}
{"smi": "CC(C)N(CCC(=O)c1ccc2ccccc2c1)Cc1ccccc1", "unit label": "%", "residual activity": 86}
{"smi": "O=C1NC(=O)C(c2cn(CCCO)c3ncccc23)=C1c1cnccn1", "unit label": "%", "residual activity": 93}
{"smi": "Nc1ncnc2c1c(-c1ccc(Oc3ccccc3)cc1)cn2C1CCCC1", "unit label": "%", "residual activity": 90}

The reported numbers originate from ChEMBL document CHEMBL2218924.
